- PROTOCOL SUMMARY: log P by HPLC on a reversed-phase column (C 18), EEC Directive 79/831 Annex V.A8
- Format: physicochemical
- TEST PARAMETERS: neutral range, pH 7.8, 0.001 molar aqueous ammonium hydrogencarbonate/acetonitrile; 55° C.

- STRUCTURE AS SMILES: "CCS(=O)(=O)c1ccc(-n2c(=O)oc3ccccc32)nc1-c1nc2cc(C(F)(F)F)ncc2n1C"
  LOGP_NEUTRAL (log P (neutral)): 3.26
- STRUCTURE AS SMILES: "CCS(=O)(=O)c1ccc(-n2nnc3ccc(Cl)cc32)nc1-c1nc2cc(C(F)(F)F)ncc2n1C"
  LOGP_NEUTRAL (log P (neutral)): 3.74
- STRUCTURE AS SMILES: "CCS(=O)(=O)c1ccc(-n2nnc3cc(Cl)ccc32)nc1-c1nc2cc(C(F)(F)F)ncc2n1C"
  LOGP_NEUTRAL (log P (neutral)): 3.77
- STRUCTURE AS SMILES: "CCS(=O)(=O)c1ccc(-n2cc3cccc(Cl)c3n2)nc1-c1nc2cc(C(F)(F)F)ncc2n1C"
  LOGP_NEUTRAL (log P (neutral)): 3.92
- STRUCTURE AS SMILES: "CCS(=O)(=O)c1ccc(-n2ccc3ncccc32)nc1-c1nc2cc(C(F)(F)F)ncc2n1C"
  LOGP_NEUTRAL (log P (neutral)): 2.47
- STRUCTURE AS SMILES: "CCS(=O)(=O)c1ccc(N2Cc3ccccc3C2=O)nc1-c1nc2cc(C(F)(F)F)ncc2n1C"
  LOGP_NEUTRAL (log P (neutral)): 3.28
